Source: ChEMBL document CHEMBL1255551

biological target: Kappa-type opioid receptor (Homo sapiens, UniProt P41145); assay: Agonist activity at human kappa opioid receptor expressed in CHO cells assessed as increase of [35S]GTPgammaS binding at 240 nM relative to U50488H; type: functional, cell-based
Sequence (P41145 whole entry): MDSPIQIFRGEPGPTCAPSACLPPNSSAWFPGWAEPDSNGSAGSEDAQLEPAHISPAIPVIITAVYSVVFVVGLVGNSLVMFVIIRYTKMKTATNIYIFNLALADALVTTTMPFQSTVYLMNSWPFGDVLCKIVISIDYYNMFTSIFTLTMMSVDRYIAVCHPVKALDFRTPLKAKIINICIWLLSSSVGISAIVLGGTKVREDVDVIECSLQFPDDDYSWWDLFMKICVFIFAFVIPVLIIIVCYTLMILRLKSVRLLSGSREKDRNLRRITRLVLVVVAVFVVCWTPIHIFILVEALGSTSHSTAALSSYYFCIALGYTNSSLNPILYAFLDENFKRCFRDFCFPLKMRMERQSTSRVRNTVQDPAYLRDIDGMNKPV
Mark label 1 only for Emax values smaller than 90%; exact matches and larger values are label 0.

Strictly below 90%: is that where Emax of `COC(=O)[C@@H]1C[C@@H](Cl)C(=O)[C@H]2[C@@]1(C)CC[C@H]1C(=O)O[C@H](c3ccoc3)C[C@]21C` sits?
label 0

Determine whether this molecule shows Emax lower than 90% (ties excluded): `COC(=O)[C@@H]1C[C@H](Br)C(=O)[C@H]2[C@@]1(C)CC[C@H]1C(=O)O[C@H](c3ccoc3)C[C@]21C`
label 1

Take the molecule `COC(=O)[C@@H]1C[C@@H](I)C(=O)[C@H]2[C@@]1(C)CC[C@H]1C(=O)O[C@H](c3ccoc3)C[C@]21C` and say whether its Emax is less than 90%.
label 1

Just wondering, is Emax of `COC(=O)[C@@H]1C[C@@H](F)C(=O)[C@H]2[C@@]1(C)CC[C@H]1C(=O)O[C@H](c3ccoc3)C[C@]21C` below 90%?
label 1

Quick check: Emax of `COC(=O)[C@@H]1CCC(=O)[C@H]2[C@@]1(C)CC[C@H]1C(=O)O[C@H](c3ccoc3)C[C@]21C` under 90%?
label 0

API: query returns whether the molecule falls strictly under 90% in Emax. Query: COC(=O)[C@@H]1CC(C(=O)O)C(=O)[C@H]2[C@@]1(C)CC[C@H]1C(=O)O[C@H](c3ccoc3)C[C@]21C (stereo partly drawn)
label 0

====

molecular target: UniProt:P41145
// returns no unless Ki is strictly below 200 nM, in which case yes

Does this compound meet the criterion Ki < 200 nM? `COC(=O)[C@@H]1C[C@H](Cl)C(=O)[C@H]2[C@@]1(C)CC[C@H]1C(=O)O[C@H](c3ccoc3)C[C@]21C`
no

is_below(Ki, 200 nM) for `COC(=O)[C@@H]1C[C@H](Br)C(=O)[C@H]2[C@@]1(C)CC[C@H]1C(=O)O[C@H](c3ccoc3)C[C@]21C` ?
no

Strictly below 200 nM in Ki? COC(=O)[C@@H]1CC(C(=O)O)C(=O)[C@H]2[C@@]1(C)CC[C@H]1C(=O)O[C@H](c3ccoc3)C[C@]21C (stereo not given in full)
yes

Does `COC(=O)[C@@H]1C[C@H](F)C(=O)[C@H]2[C@@]1(C)CC[C@H]1C(=O)O[C@H](c3ccoc3)C[C@]21C` have Ki strictly under 200 nM?
no

Please determine if `COC(=O)[C@@H]1C[C@@H](I)C(=O)[C@H]2[C@@]1(C)CC[C@H]1C(=O)O[C@H](c3ccoc3)C[C@]21C` is below 200 nM in terms of Ki.
no

Say whether its Ki is strictly beneath 200 nM. Entry: `COC(=O)[C@@H]1CCC(=O)[C@H]2[C@@]1(C)CC[C@H]1C(=O)O[C@H](c3ccoc3)C[C@]21C`
yes

Does the reported Ki of `COC(=O)[C@@H]1C[C@@H](Cl)C(=O)[C@H]2[C@@]1(C)CC[C@H]1C(=O)O[C@H](c3ccoc3)C[C@]21C` stay below 200 nM?
yes

Determine if `COC(=O)[C@@H]1C[C@@H](Br)C(=O)[C@H]2[C@@]1(C)CC[C@H]1C(=O)O[C@H](c3ccoc3)C[C@]21C` shows Ki strictly lower than 200 nM.
yes

====

biological target: Delta-type opioid receptor (Mus musculus) (UniProt P32300); test: Displacement of [3H]diprenorphine from mouse FLAG-tagged delta opioid receptor expressed in CHO cells at 3 uM; type: cell-based
Sequence (P32300 whole entry): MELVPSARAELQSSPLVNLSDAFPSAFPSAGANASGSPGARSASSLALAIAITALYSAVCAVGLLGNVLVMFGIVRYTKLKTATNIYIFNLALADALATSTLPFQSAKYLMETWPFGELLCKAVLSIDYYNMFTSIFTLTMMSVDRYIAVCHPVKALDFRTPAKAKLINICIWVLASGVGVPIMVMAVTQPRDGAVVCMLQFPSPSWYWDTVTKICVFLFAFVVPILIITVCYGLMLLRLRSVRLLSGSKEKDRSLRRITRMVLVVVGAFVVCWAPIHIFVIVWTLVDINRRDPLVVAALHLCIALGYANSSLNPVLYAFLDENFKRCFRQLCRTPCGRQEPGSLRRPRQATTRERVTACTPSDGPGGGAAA
Calls of active or inactive are those of the source. No cut-off for these calls is given here.
readout_type: Activity

>  <compound>
COC(=O)[C@@H]1C[C@@H](Br)C(=O)[C@H]2[C@@]1(C)CC[C@H]1C(=O)O[C@H](c3ccoc3)C[C@]21C

>  <val>
inactive

$$$$
>  <compound>
COC(=O)[C@@H]1CCC(=O)[C@H]2[C@@]1(C)CC[C@H]1C(=O)O[C@H](c3ccoc3)C[C@]21C

>  <val>
inactive

$$$$
>  <compound>
COC(=O)[C@@H]1CC(C(=O)O)C(=O)[C@H]2[C@@]1(C)CC[C@H]1C(=O)O[C@H](c3ccoc3)C[C@]21C (some centres undefined)

>  <val>
inactive

$$$$
>  <compound>
COC(=O)[C@@H]1C[C@H](Cl)C(=O)[C@H]2[C@@]1(C)CC[C@H]1C(=O)O[C@H](c3ccoc3)C[C@]21C

>  <val>
inactive

$$$$

====

molecular target: Kappa-type opioid receptor (Homo sapiens); assay: Agonist activity at human kappa opioid receptor expressed in CHO cells assessed as increase of [35S]GTPgammaS binding
// boundary case: EC50 equal to 300 nM maps to 0; strictly smaller maps to 1

Just wondering, is EC50 of `COC(=O)[C@@H]1C[C@H](Br)C(=O)[C@H]2[C@@]1(C)CC[C@H]1C(=O)O[C@H](c3ccoc3)C[C@]21C` below 300 nM?
0

Identify whether the compound `COC(=O)[C@@H]1CCC(=O)[C@H]2[C@@]1(C)CC[C@H]1C(=O)O[C@H](c3ccoc3)C[C@]21C` records EC50 below 300 nM.
1

I wonder whether `COC(=O)[C@@H]1C[C@@H](F)C(=O)[C@H]2[C@@]1(C)CC[C@H]1C(=O)O[C@H](c3ccoc3)C[C@]21C` has EC50 below 300 nM. Can you tell?
0

For `COC(=O)[C@@H]1C[C@@H](Br)C(=O)[C@H]2[C@@]1(C)CC[C@H]1C(=O)O[C@H](c3ccoc3)C[C@]21C` , is the recorded EC50 below the cut-off of 300 nM?
1

# strict comparison: is reported EC50 < 300 nM? input = `COC(=O)[C@@H]1C[C@H](I)C(=O)[C@H]2[C@@]1(C)CC[C@H]1C(=O)O[C@H](c3ccoc3)C[C@]21C`
0

Report whether reported EC50 is lower than 300 nM (strictly) for `COC(=O)[C@@H]1C[C@@H](Cl)C(=O)[C@H]2[C@@]1(C)CC[C@H]1C(=O)O[C@H](c3ccoc3)C[C@]21C`
0

Hello, I'm reviewing records and need to know if EC50 of COC(=O)[C@@H]1CC(C(=O)O)C(=O)[C@H]2[C@@]1(C)CC[C@H]1C(=O)O[C@H](c3ccoc3)C[C@]21C (stereo partly drawn) is below 300 nM. Could you check?
1

Hello, is EC50 of the following compound strictly smaller than 300 nM? `COC(=O)[C@@H]1C[C@@H](I)C(=O)[C@H]2[C@@]1(C)CC[C@H]1C(=O)O[C@H](c3ccoc3)C[C@]21C`
1
